Target: human IL-6 (mature hIL-6) (human, UniProt P05231 30-212)
Sequence (P05231 30-212): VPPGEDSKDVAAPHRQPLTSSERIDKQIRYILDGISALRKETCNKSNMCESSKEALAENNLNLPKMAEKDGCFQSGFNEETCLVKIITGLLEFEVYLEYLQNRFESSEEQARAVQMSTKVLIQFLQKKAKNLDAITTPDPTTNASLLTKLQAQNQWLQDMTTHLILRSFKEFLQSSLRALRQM
Assay: cell-based or functional assay
Threshold check on IC 50 (nM), reporter gene assay, 1% HSA: strictly below 0.02 nM is t; on or above 0.02 nM is f.

Just wondering, is IC 50 (nM), reporter gene assay, 1% HSA of Compound 9 (VHH, Chem. 24 (C16 diacid substituent) on Cys in position 4 and on Cys in position 6 of the extension (SEQ ID NO: 72), Polypeptide derivative; extension E2 at the C-terminus of the VHH; also called VHH_1.6-E2 with 2x Chem. 24; Chem. 31) VHH: EVQLVESGGGLVQPGGSLKLSCTTSGRRFSEYAVGWFRQAPGKEREFVADIGEQAENTWYAESVLGRFTISRDDAKNTVYLEMDGLKPEDTAVYYCAADKYGVGGNAQGYYDSWGQGTQVTVSS below 0.02 nM?
t

Lookup Compound 4 (VHH, Chem. 24 (C16 diacid substituent) on Cys in position 4 and on Cys in position 6 of the extension (SEQ ID NO: 72), Polypeptide derivative; extension E2 at the C-terminus of the VHH; also called VHH_1.1-E2 with 2x Chem. 24) VHH: EVQLVESGGGWVQPGGSLQLSCTTSGRRFSEYAVGWFRQAPGQEREFVADIGEQAENTWYAHSVLGRFTISRDEAKNTVYLQMDSLKPEDTAVYYCAADKYGVGGNAQGYYDSWGQGTQVTVSS
t

Subsequent entry: Polypeptide_19 (VHH, VHH_1.11 with C-terminal His tag extension E1; also called [VHH_1.11]-E1) VHH: QLQLVESGGGWVQPGGSLKLSCTTSGRTFSSYAVGWFRQAPGKEREFVADIGENADNTWYAHSVKGRFTISRDNAKNTVYLQMNSLKPEDTAVYYCAADSYGVGGGAQGYYDSWGQGTQVTVSS
f

Entry Compound 5 (VHH, Chem. 24 (C16 diacid substituent) on Cys in position 4 and on Cys in position 6 of the extension (SEQ ID NO: 72), Polypeptide derivative; extension E2 at the C-terminus of the VHH; also called VHH_1.2-E2 with 2x Chem. 24) VHH: EVQLVESGGGLVQPGGSLKLSCTTSGRRFSEYAVGWFRQGPGKEREFVADIGEQAENTWYAESVLGRFTISRDDAKNTVYLQMDSLKPEDTAVYYCAADKYGVGGNAQGYYDSWGQGTQVTVSS please
t

What do you have for Compound 2 (VHH, Chem. 24 (C16 diacid substituent) on Cys in position 4 and on Cys in position 6 of the extension (SEQ ID NO: 72), Polypeptide derivative; extension E2 at the C-terminus of the VHH; also called VHH_1.13-E2 with 2x Chem. 24) VHH: EVQLVESGGGLVQAGGSLQLSCTASGGTFSEYAMAWFRQAPGQEREFVTDIGESGGTWYADSVKGRFTISRDNAKNTVYLQMDSLRPEDTAVYYCAADSYGVGGGAERYYDSWGQGTQVTVSS ?
f

Similarly, Reference Anti-IL6 Fab (Fab, V domains shown) VH: EVQLVESGGGLVQPGGSLRLSCAASGFTISSNYMIWVRQAPGKGLEWVSDLYYYAGDTYYADSVKGRFTMSRDISKNTVYLQMNSLRAEDTAVYYCARWADDHPPWIDLWGRGTLVTVSS VL: DIQMTQSPSTLSASVGDRVTITCRASQGISSWLAWYQQKPGKAPKVLIYKASTLESGVPSRFSGSGSGTEFTLTISSLQPDDFATYYCQQSWLGGSFGQGTKLEIKR ?
t

And the next one, Compound 7 (VHH, Chem. 24 (C16 diacid substituent) on Cys in position 4 and on Cys in position 6 of the extension (SEQ ID NO: 72), Polypeptide derivative; extension E2 at the C-terminus of the VHH; also called VHH_1.4-E2 with 2x Chem. 24) VHH: EVQLVESGGGLVQPGGSLQLSCTTSGRKFDEYAVGWFRQAPGKEREFVADIGENAENTWYAHSVLGRFTISRDDAKNTVYLQMDSLKPEDTAVYYCAADKYGVGGNAQGYYDSWGQGTQVTVSS ?
t
